assay: human hepatoma cell viability loss – ATP luminescence, cytotoxicity control for P. falciparum antimalarial project, primary screen (AID 2303); conditions: HepG2 viability, 24-48 h, at 10 µM;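 note: 0% = DMSO wells and 100% = digitonin-killed cells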
Calls of active or inactive are those of the source.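 Rule for the calls: active = inhibition above 50%; inactive = the rest.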
Write down one outcome, taken from active, inactive

Solved cases (3 shown):
{"columns": ["compound", "assigned category"],
 "data": [
  ["CN(C)CCOc1cc(NC(=O)Nc2ccc(-c3ccccc3)cc2)ccc1I", "inactive"],
  ["FC(F)(F)c1ccc2nc(-c3cccc(-c4cccc(CNCCN5CCNCC5)c4)c3)[nH]c2c1", "inactive"],
  ["CN(c1ccc(C(=O)N[C@@H](CCC(=O)O)C(=O)O)cc1)S(=O)(=O)c1ccc2nc(N)[nH]c(=O)c2c1", "inactive"]
]}

query: Short answer needed: outcome of this test for Cc1cc(C(=O)CN2C(=O)NC3(CCOc4ccccc43)C2=O)c(C)n1Cc1ccc(F)cc1 (centres undefined) ?
result: inactive

query: Short answer needed: outcome of this test for CC(C)c1cccc(C(C)C)c1NC(=O)NNC(=O)c1ccc(CCN2CCC(c3nc(COCC(F)(F)F)c(-c4ccc(F)cc4)o3)CC2)cc1 ?
result: active

query: Short answer needed: outcome of this test for Cc1ccc(Nc2nc(C)cc(NC3CC3)n2)cc1 ?
result: inactive

query: Short answer needed: outcome of this test for CN1CCN(CCc2ccc3nc(-c4csc(Cc5cc(Cl)ccc5OCc5ccccc5)n4)[nH]c3c2)CC1 ?
result: inactive

query: Short answer needed: outcome of this test for CCOC(=O)c1ccc(NC(=O)Nc2cccc(-c3ccc(-c4nc5ccc(F)cc5[nH]4)cc3)c2)cc1 ?
result: inactive

query: Short answer needed: outcome of this test for COc1ccc2ccccc2c1CON1C(N)=NC(N)=NC1(C)C ?
result: inactive

query: Short answer needed: outcome of this test for O=S(=O)(c1cc(Cl)sc1Cl)N(CCC(O)(C(F)(F)F)C(F)(F)F)Cc1cccc(O)c1 ?
result: inactive

query: Short answer needed: outcome of this test for O=C(Nc1cccnc1)c1cn(-c2ccccc2)nc1-c1cccs1 ?
result: inactive

query: Short answer needed: outcome of this test for O=C(C1CCCC1)N1CCOC(CCN2CCC(c3ccccc3)CC2)(c2ccc(Cl)c(Cl)c2)C1 (centres undefined) ?
result: inactive

----------
target: Calcium-dependent protein kinase 4 (Plasmodium falciparum (isolate 3D7)) (UniProt Q8IBS5); experiment: PfCDPK4 kinase inhibitors, biochemical, TCAMS library (AID 1159588); details: recombinant PfCDPK4, Kinase-Glo ATP depletion luminescence
Sequence (Q8IBS5 whole entry, looked up): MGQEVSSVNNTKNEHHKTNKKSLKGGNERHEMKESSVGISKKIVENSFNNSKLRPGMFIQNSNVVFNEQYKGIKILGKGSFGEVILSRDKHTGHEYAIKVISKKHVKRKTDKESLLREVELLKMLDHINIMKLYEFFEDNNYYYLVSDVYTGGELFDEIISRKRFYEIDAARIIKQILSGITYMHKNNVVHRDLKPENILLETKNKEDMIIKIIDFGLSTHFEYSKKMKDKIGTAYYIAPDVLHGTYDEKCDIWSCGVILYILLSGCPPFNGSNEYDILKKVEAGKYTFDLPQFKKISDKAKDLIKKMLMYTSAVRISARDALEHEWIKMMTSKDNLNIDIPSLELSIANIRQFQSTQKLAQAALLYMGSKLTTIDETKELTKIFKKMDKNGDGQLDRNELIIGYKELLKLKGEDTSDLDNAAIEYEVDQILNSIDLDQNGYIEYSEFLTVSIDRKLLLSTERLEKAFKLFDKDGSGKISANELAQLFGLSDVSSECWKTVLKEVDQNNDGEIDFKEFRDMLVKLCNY
Potency and affinity values are given separately. Active and inactive are the calls of the source. No cut-off is given here; in the data, nearly all actives have IC50 up to about 0.91 µM.
metric: outcome

{"columns": ["molecule", "outcome"],
 "data": [
  ["O=C(Nc1ccc(Cn2ncc(N3CCCNCC3)c(Cl)c2=O)cc1)Nc1ccc(SC(F)(F)F)cc1", "inactive"],
  ["CS(=O)(=O)c1ccc(CCNCc2ccc(-c3ccc(CN(C(=O)C4CCCC4)C4CCN(Cc5ccccc5)CC4)cc3)nc2)cc1", "inactive"],
  ["COc1cc2nc(NCC3CCCO3)n3nc(-c4ccccc4)nc3c2cc1OC (centres undefined)", "inactive"],
  ["O=C(NCCc1ccccc1)N(Cc1cccc(-c2ccc(CNC3CCCC3)cc2)c1)C1CCN(Cc2ccccc2)CC1", "inactive"],
  ["O=S(=O)(NCCN1CCCC1)c1ccc(-c2cccc(CNCc3ccc(F)cc3)c2)cc1", "inactive"],
  ["NC(=NCCc1ccc(Cl)cc1)c1ccc(Cl)c(Cl)c1", "inactive"],
  ["CN1CC[C@@H](Oc2cc(Nc3nc(-c4ccc(C#N)cc4)cs3)ccc2Cl)C1", "inactive"],
  ["Cc1cc(NC(=O)Nc2ccc3nccc(N4CCN(C)CC4)c3c2)ccc1Br", "inactive"]
]}

Now look at this entry.
// sample COc1ccc2nccc([C@@H](O)CN3CCC(NC(=O)c4cc5c(F)cc(F)cc5[nH]4)CC3)c2n1 , its outcome was inactive

----------
target: Protein kinase 7 (PK7), Plasmodium falciparum 3D7 (PF3D7_0213400) (UniProt Q7YTF7); test: inhibition of Plasmodium PK7 catalytic activity – biochemical, TCAMS antimalarial set, Kinase-Glo luminescence (AID 1159587); settings: recombinant PfPK7, Kinase-Glo ATP depletion luminescence
Calls of active or inactive are those of the source. The rule behind the calls is not given here.
metric: outcome

Reference set (4 entries):
{"columns": ["query smiles", "test value"],
 "data": [
  ["O=C(NC1CCN(Cc2ccccc2)CC1)c1ccc(-c2nc3cc(Cl)c(Cl)cc3[nH]2)s1", "inactive"],
  ["CCn1cnc2c(N3CCCCS3(=O)=O)cc(C(=O)N[C@@H](Cc3ccccc3)[C@H](O)CNC3CCOCC3)cc21", "inactive"],
  ["CCc1ccc(NC(=O)c2ccc(CN3CCCN(Cc4cccc(Cl)c4)CC3)cc2)cc1", "inactive"],
  ["Cc1c(Cl)cccc1NC(=S)NN=Cc1ccccn1", "inactive"]
]}

Now look at this entry.
// sample CCCCCCCCc1[nH]c(C)c(Br)c(=O)c1Br , its outcome was inactive

----------
experiment: antimalarial activity against Dd2 strain (AID 2302);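 note: 0% = DMSO untreated growth and 100% = chloroquine plus artemisinin killed control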; details: P. falciparum Dd2 in RBCs, LDH growth readout, 72 h; at 2 µM; stronger effect = higher value
Classify by measured growth inhibition: MET if it is equal to or exceeds 40%, NOT MET if it is smaller.

query: Hi, just wondering whether COc1ccc(C2CC(=O)C3=C(C2)NC(C)=C(C(=O)OC(C)C)C3c2ccccc2F)cc1OC (centres undefined) shows growth inhibition of 40% or higher.
result: MET

query: Hi, just wondering whether CN(C)C(=O)c1ccc(CN(Cc2ccc(OC(C)(C)C)cc2)Cc2ccc3c(c2)OCCO3)cc1 shows growth inhibition of 40% or higher.
result: MET

query: Hi, just wondering whether CCN(CC)CCCNc1c2ccccc2nc2ccccc12 shows growth inhibition of 40% or higher.
result: NOT MET

----------
assay: inhibition of 3D7 malaria parasite growth – strain 3D7 (AID 2306);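 note: 0% = DMSO wells and 100% = chloroquine plus artemisinin control wells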; settings: P. falciparum 3D7 erythrocytic growth, LDH absorbance, 72 h; at 2 µM; stronger effect = higher value
metric: growth inhibition (%)
Numbers only, in %.

# batch: return growth inhibition for each of the 8 compounds below
1. CN1CCCC1CCNc1ncc2c(-c3ccc(NC(=O)Nc4cc(C(F)(F)F)ccc4F)c(F)c3)nn(C)c2n1 (configuration not stated)
2. Cc1c(C)n(Cc2ccccc2)c2ncnc(OC3CCN(CC(=O)NCC4CC4)CC3)c12
3. CCN(CC)CCCSc1ccc(-c2ccc(SCCCN(CC)CC)cc2)cc1
4. COc1c(C2CCN(CCCCNC(=O)c3ccc(-c4ccc(Cl)cc4)c(OCC(N)=O)c3)CC2)ccc2c1CCCC2
5. C=CCO[C@@H]1O[C@H](COC(c2ccccc2)(c2ccccc2)c2ccccc2)[C@@H](OC(C)=O)[C@H](OC(C)=O)[C@H]1NC(C)=O
6. Cc1ccccc1C1CCN(C2CCC(NC(=O)C3=Cc4ccccc4OC3)CC2)CC1 (configuration not stated)
7. O=C(NC1CCN(CCCOc2ccnc3cc(Cl)ccc23)C1)c1ccc(Br)cc1 (configuration not stated)
8. CCCCNC(=O)C(C)NC(=O)c1ccc(O)c(-c2ccc(Cl)c(Cl)c2)c1 (configuration not stated)

result:
99
92
87
97
93
91
86
98

----------
test: antimalarial activity against Dd2 strain (AID 2302);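 note: 0% = DMSO untreated growth and 100% = chloroquine plus artemisinin killed control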; conditions: P. falciparum Dd2 in RBCs, LDH growth readout, 72 h; at 2 µM
Calls of active or inactive are those of the source.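 How the source made its calls: active means growth inhibition above 50% at the single 2 µM test dose, taken to imply half-maximal potency below 2 µM; inactive means the rest.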
Write down one outcome, taken from 1.0 (active), 0.0 (inactive)

{"columns": ["compound", "assigned category"],
 "data": [
  ["CC(=O)Nc1cccc(C(=O)Nc2cccc(-c3ccc(-c4nc5ccc(F)cc5[nH]4)s3)c2)c1", 0.0]
]}

query: Short answer needed: outcome of this test for CCc1ccccc1-c1csc(C(=O)NCC2CCN(Cc3ccc(C(C)(C)C)cc3)C2)c1 (centres undefined) ?
result: 0.0

query: Short answer needed: outcome of this test for Cc1cc(NN=Cc2cccc([N+](=O)[O-])c2)c2cc(F)ccc2n1 ?
result: 1.0

query: Short answer needed: outcome of this test for Cc1ccc(-c2cc(C(=O)Nc3ccc(S(=O)(=O)N4CCCC(C)C4)cc3)[nH]n2)c(O)c1 (centres undefined) ?
result: 1.0

----------
experiment: antimalarial activity against Dd2 strain (AID 2302);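 note: 0% = DMSO untreated growth and 100% = chloroquine plus artemisinin killed control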; details: P. falciparum Dd2 in RBCs, LDH growth readout, 72 h; at 2 µM; stronger effect = higher value
Answer each item with its documented growth inhibition.
Give bare numbers, in %.

Reference set (2 entries):
{"columns": ["molecule", "metric", "test value"],
 "data": [
  ["CN1CCN(c2ccnc3ccc(NC(=O)Cc4ccc(Br)c5ccccc45)cc23)CC1", "growth inhibition", 99],
  ["COc1ccc(CN2CCC(CNC(C)c3cccc4ccccc34)CC2)cc1 (stereo not given)", "growth inhibition", 26]
]}

# batch: return growth inhibition for each of the 6 molecules below
1. CN(CCN)Cc1ccc(-c2ccc(-c3nc4ccc(C(F)(F)F)cc4[nH]3)s2)cc1
2. CC(=O)CSC(C=Cc1ccc(N(C)C)cc1)=Nc1ccccc1
3. c1ccc(CNCc2cccc(-c3ccc(-c4nc5ccccc5[nH]4)s3)c2)cc1
4. CCOC(=O)c1cnc2c(OC)cc(OC)c(Cl)c2c1Nc1cccc(C)c1
5. Fc1cccc(COc2ccc(Nc3ncnc4sc(C#CC5CCCCN5)cc34)cc2Cl)c1 (stereo not given)
6. Cc1ccc2nc(C)cc(NN=Cc3ccccc3Cl)c2c1

result:
1. 98
2. 42
3. 63
4. 20
5. 100
6. 62

# batch: return growth inhibition for each of the 7 molecules below
1. Cc1nc2ccccn2c1C1(O)C(=O)Nc2c(Cl)cc(Cl)cc21 (stereo not given)
2. Cc1cc(-c2ccc3c(c2)CCN(CCC2CCC(NC(=O)/C=C/c4ccccc4F)CC2)CC3)on1 (stereo not given)
3. OCC1CCN(Cc2ccc(-c3ccc(-c4nc5ccc(C(F)(F)F)cc5[nH]4)s3)cc2)CC1
4. O=C(Nc1ccc(Cl)cc1)Nc1cccc(-c2cccc(-c3nc4ccccc4[nH]3)c2)c1
5. O=C(Nc1cccc(-c2nn3ccccc3c2-c2ccnc(Nc3cccc(F)c3)n2)c1)c1c(F)ccc(F)c1F
6. CC(C)(C)c1ccc2nc(-c3ccc(C(=O)NC4CCN(Cc5ccccc5)CC4)s3)[nH]c2c1
7. COc1ccc2c(NN=CC=Cc3ccccc3)cc(C)nc2c1

result:
62
13
90
56
73
42
56

Source listed as PubChem BioAssay.
